target: mGFP-K-RASG12V (Homo sapiens (Human), UniProt P01116, G12V); test: K-Ras mislocalization assay (confocal microscopy, Manders coefficient); assay type: cell-based; settings: MDCK cells, 48 h treatment; listed as 15b; read-out: IC50 (μM), KRASG12V mislocalization
Measurement name: IC50 (µM)
Just the number please, in µM, no unit attached.

q: Give measured IC50 for "COc1ccccc1[C@@H](C)N(CC=C(c1ccccc1)c1ccccc1)CCN1CCN(C)CC1" (mGFP-K-RASG12V (Homo sapiens (Human), UniProt P01116, G12V)).
a: 3.8

----------
target: mGFP-K-RASG12V (Homo sapiens (Human), UniProt P01116, G12V); assay: K-Ras mislocalization assay (confocal microscopy, Manders coefficient); type: cell-based; details: MDCK cells, 48 h treatment; read-out: IC50 (μM), KRASG12V mislocalization
Measurement name: IC50 (µM)

Solved entries (count: 2):
Compound: COc1ccc([C@@H](C)N(CC=C(c2ccccc2)c2ccccc2)C(=O)CN2CCN(C)CC2)cc1 [PW125]
Endpoint result: 7.09

Compound: OC[C@H](c1ccccc1)N(CC=C(c1ccccc1)c1ccccc1)CC=C(c1ccccc1)c1ccccc1 [AVA72, reference compound]
Endpoint result: 0.17

[P] COc1ccc(NC(=O)N(CC=C(c2ccccc2)c2ccccc2)[C@H](C)c2ccc(OC)cc2)cc1 [NY0224]
[Q] COc1ccc([C@@H](C)N(CC=C(c2ccccc2)c2ccccc2)CC(=O)N2CCc3ccccc3C2)cc1 [NY0233]
[R] C(CN(CC=C(c1ccccc1)c1ccccc1)[C@@H]1C[C@H]1c1ccccc1)=C(c1ccccc1)c1ccccc1 [NY022601]
[S] COc1ccc([C@@H](C)N(CC=C(c2ccccc2)c2ccccc2)CCN2CCN(CC(C)C)CC2)cc1 [NY0372]
[T] COc1ccc(-c2cc(C(=O)N(CCN3CCCC3)[C@H](C)c3ccc(F)cc3)no2)cc1 [PW323]
q: Descending sort on IC50 required. Output the labels ranked as instructed.
a: S, Q, P, R, T
(S: 16.4 µM, Q: 3.56 µM, P: 0.64 µM, R: 0.42 µM, T: 0.05 µM)

----------
test system: MDCK cells co-expressing GFP-K-RASG12V and mCherry-CAAX; test: Cytotoxicity in mislocalization screen (death of all cells in well); conditions: drug caused death of all cells in well at 30 μM
Measurement name: Cytotoxic at 30 μM

Solved entries (count: 7):
Smiles input: COc1ccc([C@@H](C)N(CC=C(c2ccccc2)c2ccccc2)CCN2CCN(C(C)=O)CC2)cc1
Endpoint result: No

Smiles input: C[C@H](c1ccc(F)cc1)N(CC=C(c1ccccc1)c1ccccc1)CCN1CCN(C)CC1
Endpoint result: Yes

Smiles input: COc1cc(C(=CCN(CCN2CCCC2)[C@H](C)c2ccc(F)cc2)c2cc(OC)c(OC)c(OC)c2)cc(OC)c1OC
Endpoint result: Yes

Smiles input: O=C(/C=C/c1ccccc1)N(CC=C(c1ccccc1)c1ccccc1)CCN1CCCC1
Endpoint result: Yes

Smiles input: C[C@H](c1ccc(F)cc1)N(CC=C(c1ccccc1)c1ccccc1)CCn1cc(CCO)nn1
Endpoint result: Yes

Smiles input: COc1ccc([C@@H](C)N(CC=C(c2ccccc2)c2ccccc2)CCN2CCN(CC(C)C)CC2)cc1
Endpoint result: No

Smiles input: COc1ccc([C@@H](C)N(CC=C(c2ccccc2)c2ccccc2)CCCCN2CCN(C)CC2)cc1
Endpoint result: Yes

q: Give measured Cytotoxic at 30 μM for "COc1ccc([C@@H](C)N(CC=C(c2ccccc2)c2ccccc2)C(=O)NC2CCCCC2)cc1" (MDCK cells co-expressing GFP-K-RASG12V and mCherry-CAAX).
a: No

----------
target: mGFP-K-RASG12V (Homo sapiens (Human), UniProt P01116, G12V); test: K-Ras mislocalization assay (confocal microscopy, Manders coefficient); assay type: cell-based; design: key: Manders coefficient: fraction of mCherry-CAAX co-localizing with GFP-K-Ras; details: maximal effect, Manders coefficient; MDCK cells, 48 h
Measurement name: Emax

Compound: CN1CCN(CCN(CC=C(c2ccccc2)c2ccccc2)[C@@H]2CCc3ccccc32)CC1 [NY0369b]
Emax: 0.866
--
Compound: COc1ccc([C@@H](C)N(CC=C(c2ccccc2)c2ccccc2)C(=O)CN2CCC(O)CC2)cc1 [PW126]
Emax: 0.412
--
Compound: O=C(Nc1ccc(F)cc1)N(CC=C(c1ccccc1)c1ccccc1)CCN1CCCC1 [PW279]
Emax: 0.608
--
Compound: Cc1nnc([C@H](NCC=C(c2ccccc2)c2ccccc2)c2ccccc2)o1 [NY0570]
Emax: 0.397

[I] COc1ccc([C@@H](C)N(CC=C(c2ccccc2)c2ccccc2)CCN2CCN(C(C)=O)CC2)cc1 [NY350]
[II] O=C(O)[C@H](NCC=C(c1ccccc1)c1ccccc1)c1ccccc1 [NY0555]
q: Could you determine which record has the numerically smaller Emax? Candidates: I and II Answer by stating the label of the chosen item.
a: II
(II: 0.332, I: 0.877)

----------
test system: MDCK cells co-expressing GFP-K-RASG12V and mCherry-CAAX; test: Cytotoxicity in mislocalization screen (death of all cells in well); conditions: drug caused death of all cells in well at 30 μM
Measurement name: Cytotoxic at 30 μM

Solved entries (count: 5):
Smiles input: C=CCN(CCN1CCN(C)CC1)[C@H](C)c1ccc(OC)cc1
Cytotoxic at 30 μM: No
//
Smiles input: C[C@H](c1ccc([N+](=O)[O-])cc1)N(CC=C(c1ccccc1)c1ccccc1)CCN1CCN(C)CC1
Cytotoxic at 30 μM: Yes
//
Smiles input: O=C(c1cnc2ccccc2n1)N(CC=C(c1ccccc1)c1ccccc1)CCN1CCCC1
Cytotoxic at 30 μM: Yes
//
Smiles input: CCN(CC=C(c1ccccc1)c1ccccc1)[C@H](C)c1ccc(OC)cc1
Cytotoxic at 30 μM: No
//
Smiles input: COc1ccc([C@@H](C)N(CC=C(c2ccccc2)c2ccccc2)C(=O)NC(C)(C)C)cc1
Cytotoxic at 30 μM: No

q: Output measured Cytotoxic at 30 μM for this item: "CN1CCN(C(=O)[C@H](NCC=C(c2ccccc2)c2ccccc2)c2ccccc2)CC1"
a: No

----------
tested on: MDCK cells co-expressing GFP-K-RASG12V and mCherry-CAAX; assay: Cytotoxicity in mislocalization screen (death of all cells in well); conditions: drug caused death of all cells in well at 30 μM
Measurement name: Cytotoxic at 30 μM

Solved entries (count: 7):
Compound: COc1ccc([C@@H](C)N(CC=C(c2ccccc2)c2ccccc2)CCCC=O)cc1
Cytotoxic at 30 μM: No

Compound: CC1CCc2ccccc2N1CC=C(c1ccccc1)c1ccccc1 (stereo not drawn)
Cytotoxic at 30 μM: No

Compound: C(CN(CCN1CCCC1)Cc1cc2cccnc2[nH]1)=C(c1ccccc1)c1ccccc1
Cytotoxic at 30 μM: Yes

Compound: C[C@H](c1ccccc1)N(CC=C(c1ccccc1)c1ccccc1)CCN1CCN(C)CC1
Cytotoxic at 30 μM: Yes

Compound: C[C@H](c1ccc(Cl)cc1)N(CC=C(c1ccccc1)c1ccccc1)CCN1CCCC1
Cytotoxic at 30 μM: Yes

Compound: COc1cccc([C@@H](C)N(CC=C(c2ccccc2)c2ccccc2)CCN2CCN(C)CC2)c1
Cytotoxic at 30 μM: Yes

Compound: COc1ccc([C@@H](C)N(CC=C(c2ccccc2)c2ccccc2)CCN2CCN(C(=O)NC(C)(C)C)CC2)cc1
Cytotoxic at 30 μM: No

q: Give measured Cytotoxic at 30 μM for "C[C@H](c1ccc(F)cc1)N(CCN1CCCC1)C(=O)c1cc(-c2ccccc2)ccn1" (MDCK cells co-expressing GFP-K-RASG12V and mCherry-CAAX).
a: No

----------
target: mGFP-K-RASG12V (Homo sapiens (Human), UniProt P01116, G12V); experiment: K-Ras mislocalization assay (confocal microscopy, Manders coefficient); assay type: cell-based; conditions: MDCK cells, 48 h treatment; read-out: IC50 (μM), KRASG12V mislocalization
Measurement name: IC50 (µM)

Solved entries (count: 3):
Compound: COc1ccc([C@@H](C)N(CC=C(c2ccccc2)c2ccccc2)CC(=O)O)cc1 [NY0229]
IC50 (µM): 6.39
//
Compound: C(CN1CCN(c2ccccc2)CC1)=C(c1ccccc1)c1ccccc1 [NY307, 1-(3,3-diphenylallyl)-4-phenylpiperazine]
IC50 (µM): 4.2
//
Compound: COc1ccc([C@@H](C)N(CC=C(c2ccccc2)c2ccccc2)CCCN2CCN(C)CC2)cc1 [NY0335]
IC50 (µM): 0.02

[1] CCOC(CCCN(CC=C(c1ccccc1)c1ccccc1)[C@H](C)c1ccc(OC)cc1)OCC [NY348]
[2] Nc1nccnc1C(=O)N(CC=C(c1ccccc1)c1ccccc1)CCN1CCCC1 [PW282]
[3] COc1ccc([C@@H](C)N(CC=C(c2ccccc2)c2ccccc2)C(C)=O)cc1 [NY0222]
[4] C[C@H](c1ccc(F)cc1)N(CC=C(c1ccccc1)c1ccccc1)CCn1cc(CN(C)C)nn1 [PW306]
q: // ascending sort on recorded IC50 Output the labels ranked as instructed.
a: 3, 4, 1, 2
(3: 0.25 µM, 4: 3.19 µM, 1: 5.47 µM, 2: 12.5 µM)
